B1: RTP4 (parent)
chain: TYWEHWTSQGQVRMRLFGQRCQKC

- Variants of: B1
- test: protein stability index of a GFP-peptide fusion (GPS, HEK-293T) (PSI 1-6); higher = more stable;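 also: lentivirally expressed fusions sorted by FACS into six bins by GFP to DsRed ratio, PSI derived from sequencing read proportions per bin multiplied by bin number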
- experimental_parameters: c terminus: a fixed tail appended
Classification field: Criterion met = protein stability index at or over 2; Criterion not met = protein stability index under 2.

Request: Is protein stability index at least 2? Consider H5T
Result: Criterion met

Request: Is protein stability index at least 2? Consider W6V
Result: Criterion met

Request: Is protein stability index at least 2? Consider W3P
Result: Criterion met

Request: Is protein stability index at least 2? Consider G18P
Result: Criterion not met

Request: Is protein stability index at least 2? Consider Q9T
Result: Criterion not met

Request: Is protein stability index at least 2? Consider Q9K
Result: Criterion met

Request: Is protein stability index at least 2? Consider R15Q
Result: Criterion not met

Request: Is protein stability index at least 2? Consider R20M
Result: Criterion met

Request: Is protein stability index at least 2? Consider Q22T
Result: Criterion not met

Request: Is protein stability index at least 2? Consider V12E
Result: Criterion met

Request: Is protein stability index at least 2? Consider Q22E
Result: Criterion not met

Request: Is protein stability index at least 2? Consider R15F
Result: Criterion not met

Request: Is protein stability index at least 2? Consider R15M
Result: Criterion met

Request: Is protein stability index at least 2? Consider W3M
Result: Criterion met

Request: Is protein stability index at least 2? Consider F17A
Result: Criterion not met

Request: Is protein stability index at least 2? Consider S8C
Result: Criterion not met

Request: Is protein stability index at least 2? Consider C21T
Result: Criterion not met

Request: Is protein stability index at least 2? Consider S8E
Result: Criterion not met

Request: Is protein stability index at least 2? Consider S8Y
Result: Criterion not met

Request: Is protein stability index at least 2? Consider W6R
Result: Criterion met

Request: Is protein stability index at least 2? Consider K23Y
Result: Criterion not met

Request: Is protein stability index at least 2? Consider K23P
Result: Criterion not met

Request: Is protein stability index at least 2? Consider R15T
Result: Criterion not met

Request: Is protein stability index at least 2? Consider R20G
Result: Criterion not met

Request: Is protein stability index at least 2? Consider M14N
Result: Criterion not met

Request: Is protein stability index at least 2? Consider L16K
Result: Criterion not met

Request: Is protein stability index at least 2? Consider Q19T
Result: Criterion not met

Request: Is protein stability index at least 2? Consider Y2F
Result: Criterion not met

Request: Is protein stability index at least 2? Consider T7Q
Result: Criterion not met

Request: Is protein stability index at least 2? Consider R20C
Result: Criterion met

Request: Is protein stability index at least 2? Consider Y2W
Result: Criterion not met

Request: Is protein stability index at least 2? Consider Y2E
Result: Criterion met

Request: Is protein stability index at least 2? Consider G10L
Result: Criterion not met

Request: Is protein stability index at least 2? Consider L16A
Result: Criterion not met

Request: Is protein stability index at least 2? Consider W3A
Result: Criterion met

Request: Is protein stability index at least 2? Consider R20D
Result: Criterion met

Request: Is protein stability index at least 2? Consider R13I
Result: Criterion met

Request: Is protein stability index at least 2? Consider Q22A
Result: Criterion met

Request: Is protein stability index at least 2? Consider G18N
Result: Criterion met

Request: Is protein stability index at least 2? Consider Y2A
Result: Criterion met

Request: Is protein stability index at least 2? Consider H5N
Result: Criterion not met

Request: Is protein stability index at least 2? Consider L16G
Result: Criterion met

Request: Is protein stability index at least 2? Consider T1W
Result: Criterion met
